Numbers sourced from ChEMBL document CHEMBL3784935.

# experimental.system: Acetylcholinesterase (Electrophorus electricus)
# Sequence (O42275 whole entry): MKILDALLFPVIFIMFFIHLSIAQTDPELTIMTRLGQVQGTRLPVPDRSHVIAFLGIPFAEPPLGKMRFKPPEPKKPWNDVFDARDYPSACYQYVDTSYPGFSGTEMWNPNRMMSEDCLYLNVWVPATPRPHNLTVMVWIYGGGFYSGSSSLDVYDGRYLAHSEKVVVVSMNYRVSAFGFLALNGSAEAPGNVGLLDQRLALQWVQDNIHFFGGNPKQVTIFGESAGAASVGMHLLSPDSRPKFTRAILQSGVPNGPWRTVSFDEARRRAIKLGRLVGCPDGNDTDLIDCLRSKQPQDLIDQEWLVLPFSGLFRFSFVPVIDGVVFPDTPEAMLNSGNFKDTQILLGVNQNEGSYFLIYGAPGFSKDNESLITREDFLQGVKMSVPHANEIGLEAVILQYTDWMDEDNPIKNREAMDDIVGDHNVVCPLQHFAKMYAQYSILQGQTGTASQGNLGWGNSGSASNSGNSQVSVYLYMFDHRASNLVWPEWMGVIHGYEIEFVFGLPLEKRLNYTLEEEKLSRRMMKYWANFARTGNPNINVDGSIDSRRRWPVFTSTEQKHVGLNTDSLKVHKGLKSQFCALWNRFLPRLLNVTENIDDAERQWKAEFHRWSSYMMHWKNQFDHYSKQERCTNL
pIC50: −log10 of the molar value.
Note to self: values exactly at 6 are 1. So pIC50 at or above 6 is 1, below is -1.

{"compound": "COc1cc(/C=C/c2ccc(OCC(=O)NCCN(C)Cc3ccccc3)cc2)cc(OC)c1", "group": -1}
{"compound": "CCN(CCCCCCNC(=O)COc1ccc(/C=C/c2cc(OC)cc(OC)c2)cc1)Cc1ccccc1OC", "group": 1}
{"compound": "COc1cc(/C=C/c2ccc(OCC(=O)NCCN(C)Cc3ccccc3OC)cc2)cc(OC)c1", "group": -1}
{"compound": "CCN(CCNC(=O)COc1ccc(/C=C/c2cc(OC)cc(OC)c2)cc1)Cc1ccccc1", "group": -1}
{"compound": "COc1cc(/C=C/c2ccc(OCC(=O)NCCCCN(C)Cc3ccccc3OC)cc2)cc(OC)c1", "group": 1}
{"compound": "COc1cc(/C=C/c2ccc(OCC(=O)NCCCN(C)Cc3ccccc3)cc2)cc(OC)c1", "group": -1}

Now consider a different molecule.
Query: Item `CCN(CCCCNC(=O)COc1ccc(/C=C/c2cc(OC)cc(OC)c2)cc1)Cc1ccccc1OC` with pIC50 of 6 or above?
Response: 1

====

# measurement.description: Inhibition of rat serum butyrylcholinesterase using butyrylthiocholine iodide substrate after 15 mins by spectrophotometric method
measured.property: IC50
Record the result as a number with its unit.

{"compound": "CCN(CCCCCCNC(=O)COc1ccc(/C=C/c2cc(OC)cc(OC)c2)cc1)Cc1ccccc1OC", "measured.property": "IC50", "experimental.result": "28 µM"}
{"compound": "CCN(CCCCNC(=O)COc1ccc(/C=C/c2cc(OC)cc(OC)c2)cc1)Cc1ccccc1", "measured.property": "IC50", "experimental.result": "227 µM"}
{"compound": "CCN(CCNC(=O)COc1ccc(/C=C/c2cc(OC)cc(OC)c2)cc1)Cc1ccccc1OC", "measured.property": "IC50", "experimental.result": "321 µM"}
{"compound": "COc1cc(/C=C/c2ccc(OCC(=O)NCCCCN(C)Cc3ccccc3)cc2)cc(OC)c1", "measured.property": "IC50", "experimental.result": "279 µM"}
{"compound": "CCN(CCCNC(=O)COc1ccc(/C=C/c2cc(OC)cc(OC)c2)cc1)Cc1ccccc1", "measured.property": "IC50", "experimental.result": "262 µM"}
{"compound": "CCN(CCCCNC(=O)COc1ccc(/C=C/c2cc(OC)cc(OC)c2)cc1)Cc1ccccc1OC", "measured.property": "IC50", "experimental.result": "26.5 µM"}

As a next step, examine the compound that follows.
Query: // lookup IC50 for `CCN(CCCNC(=O)COc1ccc(/C=C/c2cc(OC)cc(OC)c2)cc1)Cc1ccccc1OC`
Response: 64 µM

====

Here the recorded inhibition is given for each entry.
# experimental.system: Amyloid-beta precursor protein (Homo sapiens) (UniProt P05067)
# Sequence (P05067 whole entry): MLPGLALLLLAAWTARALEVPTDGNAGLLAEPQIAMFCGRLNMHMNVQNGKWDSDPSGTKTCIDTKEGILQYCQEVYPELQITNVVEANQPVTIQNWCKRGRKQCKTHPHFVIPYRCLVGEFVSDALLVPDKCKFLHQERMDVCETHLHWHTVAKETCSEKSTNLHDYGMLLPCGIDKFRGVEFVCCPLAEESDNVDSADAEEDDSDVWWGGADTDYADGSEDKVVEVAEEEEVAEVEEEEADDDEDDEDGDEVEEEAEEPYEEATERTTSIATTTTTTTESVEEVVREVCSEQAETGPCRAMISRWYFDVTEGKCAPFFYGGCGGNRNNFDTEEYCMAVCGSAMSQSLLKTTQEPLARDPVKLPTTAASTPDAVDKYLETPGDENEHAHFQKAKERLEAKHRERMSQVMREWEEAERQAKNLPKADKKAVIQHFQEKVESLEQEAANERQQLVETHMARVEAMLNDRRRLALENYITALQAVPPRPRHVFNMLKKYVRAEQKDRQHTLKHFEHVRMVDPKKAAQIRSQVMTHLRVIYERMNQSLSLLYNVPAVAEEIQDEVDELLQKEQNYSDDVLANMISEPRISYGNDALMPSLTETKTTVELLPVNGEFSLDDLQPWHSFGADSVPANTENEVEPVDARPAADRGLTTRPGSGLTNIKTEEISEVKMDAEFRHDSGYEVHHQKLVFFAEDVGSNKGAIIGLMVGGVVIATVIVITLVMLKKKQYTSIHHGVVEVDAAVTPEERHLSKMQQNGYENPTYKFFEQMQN
# measurement.description: Inhibition of self-induced amyloid beta (1 to 42) aggregation (unknown origin) at 25 uM after 24 hrs by thioflavin T fluorescence method
Write the answer as a number in %, unit excluded.

{"compound": "CCN(CCCCNC(=O)COc1ccc(/C=C/c2cc(OC)cc(OC)c2)cc1)Cc1ccccc1OC", "measured.property": "inhibition", "experimental.result": 28.9}

Query: // lookup inhibition for `CCN(CCNC(=O)COc1ccc(/C=C/c2cc(OC)cc(OC)c2)cc1)Cc1ccccc1OC`
Response: 25.8

Query: // query: `COc1cc(/C=C/c2ccc(OCC(=O)NCCN(C)Cc3ccccc3)cc2)cc(OC)c1`
Response: 36.3

Query: // query: `COc1cc(/C=C/c2ccc(OCC(=O)NCCCCN(C)Cc3ccccc3OC)cc2)cc(OC)c1`
Response: 29.6

Query: // query: `CCN(CCCNC(=O)COc1ccc(/C=C/c2cc(OC)cc(OC)c2)cc1)Cc1ccccc1`
Response: 11.8

Query: // query: `CCN(CCNC(=O)COc1ccc(/C=C/c2cc(OC)cc(OC)c2)cc1)Cc1ccccc1`
Response: 21.9

Query: // query: `CCN(CCCCCCNC(=O)COc1ccc(/C=C/c2cc(OC)cc(OC)c2)cc1)Cc1ccccc1OC`
Response: 32.4

Query: // query: `COc1cc(/C=C/c2ccc(OCC(=O)NCCCN(C)Cc3ccccc3)cc2)cc(OC)c1`
Response: 21.2

Query: // query: `COc1cc(/C=C/c2ccc(OCC(=O)NCCCN(C)Cc3ccccc3OC)cc2)cc(OC)c1`
Response: 20.3

Query: // query: `Oc1ccc(/C=C/c2cc(O)cc(O)c2)cc1`
Response: 49.8

Query: // query: `CCN(CCCCNC(=O)COc1ccc(/C=C/c2cc(OC)cc(OC)c2)cc1)Cc1ccccc1`
Response: 14.3

Query: // query: `COc1cc(/C=C/c2ccc(OCC(=O)NCCCCN(C)Cc3ccccc3)cc2)cc(OC)c1`
Response: 17.9

Query: // query: `CCN(CCCNC(=O)COc1ccc(/C=C/c2cc(OC)cc(OC)c2)cc1)Cc1ccccc1OC`
Response: 18.3

Query: // query: `COc1cc(/C=C/c2ccc(OCC(=O)NCCN(C)Cc3ccccc3OC)cc2)cc(OC)c1`
Response: 11.2

Query: // query: `COc1cc(/C=C/c2ccc(OCC(=O)NCCCCCCN(C)Cc3ccccc3)cc2)cc(OC)c1`
Response: 12.6

Query: // query: `COc1cc(/C=C/c2ccc(OCC(=O)NCCCCCCN(C)Cc3ccccc3OC)cc2)cc(OC)c1`
Response: 22.4

Query: // query: `CCN(CCCCCCNC(=O)COc1ccc(/C=C/c2cc(OC)cc(OC)c2)cc1)Cc1ccccc1`
Response: 14.6

====

# measurement.description: Selectivity index, ratio of IC50 for rat serum butyrylcholinesterase to IC50 for Electrophorus electricus acetylcholinesterase
Here the recorded Ratio IC50 is given for each entry.

{"compound": "COc1cc(/C=C/c2ccc(OCC(=O)NCCCN(C)Cc3ccccc3OC)cc2)cc(OC)c1", "Ratio IC50": 22.1}
{"compound": "CCN(CCCCNC(=O)COc1ccc(/C=C/c2cc(OC)cc(OC)c2)cc1)Cc1ccccc1", "Ratio IC50": 79.3}
{"compound": "CCN(CCCNC(=O)COc1ccc(/C=C/c2cc(OC)cc(OC)c2)cc1)Cc1ccccc1", "Ratio IC50": 31.9}
{"compound": "CCN(CCCCNC(=O)COc1ccc(/C=C/c2cc(OC)cc(OC)c2)cc1)Cc1ccccc1OC", "Ratio IC50": 49}

Query: // lookup Ratio IC50 for `COc1cc(/C=C/c2ccc(OCC(=O)NCCCCN(C)Cc3ccccc3)cc2)cc(OC)c1`
Response: 29

====

# measurement.description: Inhibition of rat serum butyrylcholinesterase using butyrylthiocholine iodide substrate after 15 mins by spectrophotometric method
Values of IC50 strictly less than 40 µM map to T, and values of at least 40 µM map to F.

Solved cases below.
{"compound": "COc1cc(/C=C/c2ccc(OCC(=O)NCCCCN(C)Cc3ccccc3OC)cc2)cc(OC)c1", "group": "T"}
{"compound": "COc1cc(/C=C/c2ccc(OCC(=O)NCCCCCCN(C)Cc3ccccc3OC)cc2)cc(OC)c1", "group": "T"}
{"compound": "COc1cc(/C=C/c2ccc(OCC(=O)NCCCN(C)Cc3ccccc3)cc2)cc(OC)c1", "group": "F"}
{"compound": "COc1cc(/C=C/c2ccc(OCC(=O)NCCN(C)Cc3ccccc3)cc2)cc(OC)c1", "group": "F"}

Query: State whether 40 µM exceeds IC50 recorded for `COc1cc(/C=C/c2ccc(OCC(=O)NCCCN(C)Cc3ccccc3OC)cc2)cc(OC)c1` .
Response: F

====

# measurement.description: Selectivity index, ratio of IC50 for rat serum butyrylcholinesterase to IC50 for Electrophorus electricus acetylcholinesterase
measured.property: Ratio IC50
Output spec: single numeric token, no unit.

// known answers, use as guide
{"compound": "COc1cc(/C=C/c2ccc(OCC(=O)NCCCN(C)Cc3ccccc3)cc2)cc(OC)c1", "experimental.result": 22.9}
{"compound": "COc1cc(/C=C/c2ccc(OCC(=O)NCCCCN(C)Cc3ccccc3OC)cc2)cc(OC)c1", "experimental.result": 72}
{"compound": "CCN(CCNC(=O)COc1ccc(/C=C/c2cc(OC)cc(OC)c2)cc1)Cc1ccccc1OC", "experimental.result": 18.4}
{"compound": "CCN(CCCNC(=O)COc1ccc(/C=C/c2cc(OC)cc(OC)c2)cc1)Cc1ccccc1OC", "experimental.result": 23.8}
{"compound": "COc1cc(/C=C/c2ccc(OCC(=O)NCCCCCCN(C)Cc3ccccc3OC)cc2)cc(OC)c1", "experimental.result": 5.65}

Query: // lookup Ratio IC50 for `CCN(CCCCCCNC(=O)COc1ccc(/C=C/c2cc(OC)cc(OC)c2)cc1)Cc1ccccc1`
Response: 9.4

Query: // query: `CCN(CCNC(=O)COc1ccc(/C=C/c2cc(OC)cc(OC)c2)cc1)Cc1ccccc1`
Response: 0.96

Query: // query: `COc1cc(/C=C/c2ccc(OCC(=O)NCCN(C)Cc3ccccc3)cc2)cc(OC)c1`
Response: 1.36

Query: // query: `COc1cc(/C=C/c2ccc(OCC(=O)NCCCCCCN(C)Cc3ccccc3)cc2)cc(OC)c1`
Response: 13.2

Query: // query: `CCN(CCCCCCNC(=O)COc1ccc(/C=C/c2cc(OC)cc(OC)c2)cc1)Cc1ccccc1OC`
Response: 467

Query: // query: `COc1cc(/C=C/c2ccc(OCC(=O)NCCN(C)Cc3ccccc3OC)cc2)cc(OC)c1`
Response: 10.6
